- TEST_TARGET: Calcium/calmodulin-dependent protein kinase type 1 (Homo sapiens)
- STATED_CONDITIONS: at 10 µM
ASSAY_METRIC: residual activity (%)
Numbers only, in %.

Worked set:
Nc1n[nH]c2nc3ccccc3nc12 = 68
Nc1nc(Nc2ccc(S(N)(=O)=O)cc2)nn1C(=O)c1c(F)cccc1F = 60
CSc1nc(-c2ccc(F)cc2)c(-c2ccnc(NC(C)c3ccccc3)c2)[nH]1 (stereo not given) = 87
CC(C)(C)c1nc2c3ccc(F)cc3c3c(=O)[nH]ccc3c2[nH]1 = 9

Turning now to a further molecule:
Data request: May I ask what residual activity has been recorded for O=c1cc(N2CCOCC2)oc2c1ccc1ccccc12 ?
Data returned: 72

====

- TEST_TARGET: Serine/threonine-protein kinase Nek11 (Homo sapiens)
- STATED_CONDITIONS: at 10 µM
ASSAY_METRIC: residual activity
Note to self: number, then unit, no commentary.

O=C1Cc2c([nH]c3ccc([N+](=O)[O-])cc23)-c2ccccc2N1 = 79%

Count: 2. Required value per item: residual activity.
1. O=c1c(-c2ccc(F)cc2)c(-c2ccncc2)[nH]n1-c1ccc(Cl)cc1
2. O=C1NC(=O)C(c2cn(CCCO)c3ncccc23)=C1c1cnccn1

Data returned:
1. 78%
2. 82%

====

- TEST_TARGET: Serine/threonine-protein kinase ULK3 (Homo sapiens) (UniProt Q6PHR2)
- Sequence (whole entry): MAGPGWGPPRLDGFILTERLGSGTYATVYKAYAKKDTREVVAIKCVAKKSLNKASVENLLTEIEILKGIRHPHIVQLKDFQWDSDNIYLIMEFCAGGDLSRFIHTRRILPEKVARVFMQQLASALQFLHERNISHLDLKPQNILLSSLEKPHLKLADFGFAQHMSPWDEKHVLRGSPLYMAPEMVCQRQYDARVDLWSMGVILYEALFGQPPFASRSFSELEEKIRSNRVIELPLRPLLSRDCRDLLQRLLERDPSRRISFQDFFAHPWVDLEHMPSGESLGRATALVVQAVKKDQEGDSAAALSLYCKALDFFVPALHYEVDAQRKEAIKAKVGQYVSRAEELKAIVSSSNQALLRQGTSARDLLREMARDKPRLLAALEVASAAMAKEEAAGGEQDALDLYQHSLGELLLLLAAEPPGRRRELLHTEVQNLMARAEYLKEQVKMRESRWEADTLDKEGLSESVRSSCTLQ
- STATED_CONDITIONS: at 10 µM
ASSAY_METRIC: residual activity
Kindly format the answer as number then unit.

CCCCc1c(-c2ccc(O)cc2)[nH]c2nccnc12 = 31%

Respectfully, I request residual activity for each entry included below.
1. Nc1nc(Nc2ccc(S(N)(=O)=O)cc2)nn1C(=O)c1c(F)cccc1F
2. Nc1ncnc2c1cnn2-c1ccccc1
3. CCN(CC)CCNC(=O)c1c(C)[nH]c(/C=C2\C(=O)Nc3ccc(Cl)cc32)c1C
4. N#C/C(=C\c1ccc(O)c(O)c1)C(=O)NCc1ccccc1
5. O=C1NC(=O)c2c1c1c3ccccc3[nH]c1n1cncc21

Data returned:
1: 9%; 2: 91%; 3: 2%; 4: 86%; 5: 70%

====

Exercise: state measured residual activity for each of the compounds provided.
- TEST_TARGET: Platelet-derived growth factor receptor beta (Homo sapiens) (UniProt P09619)
- Sequence (P09619 whole entry): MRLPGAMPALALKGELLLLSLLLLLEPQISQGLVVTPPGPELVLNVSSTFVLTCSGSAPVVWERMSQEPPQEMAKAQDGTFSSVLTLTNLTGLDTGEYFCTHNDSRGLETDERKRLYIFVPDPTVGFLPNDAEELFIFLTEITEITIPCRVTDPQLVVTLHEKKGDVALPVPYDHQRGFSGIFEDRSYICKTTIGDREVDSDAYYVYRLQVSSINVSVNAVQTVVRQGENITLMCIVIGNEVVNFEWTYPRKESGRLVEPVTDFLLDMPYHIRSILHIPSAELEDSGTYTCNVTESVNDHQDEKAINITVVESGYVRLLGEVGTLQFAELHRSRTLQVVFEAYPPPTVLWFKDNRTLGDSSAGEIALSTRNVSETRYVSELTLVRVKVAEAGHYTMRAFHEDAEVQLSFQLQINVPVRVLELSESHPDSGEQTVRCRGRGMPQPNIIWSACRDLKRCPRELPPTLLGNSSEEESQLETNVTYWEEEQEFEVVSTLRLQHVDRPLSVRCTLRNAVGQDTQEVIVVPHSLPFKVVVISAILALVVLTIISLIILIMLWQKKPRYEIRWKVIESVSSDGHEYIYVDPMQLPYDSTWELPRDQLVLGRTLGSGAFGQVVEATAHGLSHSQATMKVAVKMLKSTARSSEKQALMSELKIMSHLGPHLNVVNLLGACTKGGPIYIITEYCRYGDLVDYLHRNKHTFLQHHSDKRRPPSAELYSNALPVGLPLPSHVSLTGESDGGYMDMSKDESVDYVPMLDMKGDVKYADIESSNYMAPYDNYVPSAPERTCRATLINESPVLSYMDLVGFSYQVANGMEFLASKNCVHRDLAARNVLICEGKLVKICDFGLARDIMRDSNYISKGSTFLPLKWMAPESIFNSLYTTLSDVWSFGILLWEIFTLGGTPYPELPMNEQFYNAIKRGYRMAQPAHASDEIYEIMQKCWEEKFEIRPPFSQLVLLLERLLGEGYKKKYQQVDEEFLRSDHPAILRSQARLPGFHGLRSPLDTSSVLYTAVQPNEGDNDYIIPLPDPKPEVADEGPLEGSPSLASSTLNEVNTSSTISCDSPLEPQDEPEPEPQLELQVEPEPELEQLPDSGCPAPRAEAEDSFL
- STATED_CONDITIONS: at 10 µM
Answers are plain numbers, in %.

CCOC(=O)c1c(C)[nH]c(/C=C2\C(=O)Nc3ccccc32)c1C = 92
O=C1NC(=O)c2c1c1c3ccccc3[nH]c1n1cncc21 = 92

Now for a further compound.
Data request: What does the record list as residual activity for CN(C)S(=O)(=O)c1ccc2c(c1)/C(=C/c1cc3c([nH]1)CCCC3)C(=O)N2 ?
Data returned: 90

These entries and their values trace back to ChEMBL document CHEMBL2218924.
